Provide the recorded pIC50 for the entries that follow.
Biological target: human PAD4 (Homo sapiens (Human), UniProt Q9UM07)
Sequence (Q9UM07 2-663): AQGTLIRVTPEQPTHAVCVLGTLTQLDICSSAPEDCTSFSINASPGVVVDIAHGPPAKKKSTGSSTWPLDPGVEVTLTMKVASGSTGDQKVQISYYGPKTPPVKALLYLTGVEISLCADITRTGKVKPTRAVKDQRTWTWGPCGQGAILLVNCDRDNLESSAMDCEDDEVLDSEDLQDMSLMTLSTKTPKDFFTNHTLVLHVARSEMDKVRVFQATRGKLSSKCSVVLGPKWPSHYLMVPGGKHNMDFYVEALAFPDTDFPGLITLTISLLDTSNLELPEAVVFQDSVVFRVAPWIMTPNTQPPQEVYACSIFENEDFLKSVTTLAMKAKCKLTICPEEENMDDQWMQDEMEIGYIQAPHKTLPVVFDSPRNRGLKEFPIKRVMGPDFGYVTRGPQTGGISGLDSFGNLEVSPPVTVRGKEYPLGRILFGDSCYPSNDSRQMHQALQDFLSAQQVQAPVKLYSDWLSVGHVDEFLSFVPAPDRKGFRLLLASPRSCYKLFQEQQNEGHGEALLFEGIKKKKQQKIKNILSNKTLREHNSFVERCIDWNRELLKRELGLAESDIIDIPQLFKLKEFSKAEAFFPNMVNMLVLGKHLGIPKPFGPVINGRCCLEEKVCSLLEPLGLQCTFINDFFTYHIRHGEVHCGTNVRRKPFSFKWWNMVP
Test: In Vitro PAD4 BAEE Biochemical Assay
Conditions: human PAD4, BAEE substrate; 5 nM PAD4, 2 mM calcium chloride, 3 mM BAEE; geometric mean of multiple experiments
Would you please state pIC50, meaning minus log10 of the concentration in mol/L, as a bare number?

Give pIC50 (human PAD4 (Homo sapiens (Human), UniProt Q9UM07)) of the following molecule: `COc1cc(C(=O)N2CCC[C@@H](N)[C@H]2C)cc2nc(-c3cc4ccc(N(C)S(C)(=O)=O)nc4n3CC3CC3)n(CC3CC3)c12`
6.91

Give pIC50 (human PAD4 (Homo sapiens (Human), UniProt Q9UM07)) of the following molecule: `COc1cc(C(=O)N2C[C@H](N)CCN2C)cc2nc(-c3cc4ccc([C@@H](C)NC(=O)[C@@H](C)c5ccccc5)nc4n3CC3CC3)n(C)c12`
7.04

Give pIC50 (human PAD4 (Homo sapiens (Human), UniProt Q9UM07)) of the following molecule: `CCN(c1ccc2cc(-c3nc4cc(C(=O)N5CCC[C@@H](N)[C@H]5C)cc(OC)c4n3C)n(CC3CC3)c2n1)S(C)(=O)=O`
7.01

Give pIC50 (human PAD4 (Homo sapiens (Human), UniProt Q9UM07)) of the following molecule: `COc1cc(C(=O)N2C[C@H](N)CCN2C)cc2nc(-c3cc4ccc([C@@H](C)NC(=O)c5c(F)cccc5F)nc4n3CC3CC3)n(C)c12`
6.89

Give pIC50 (human PAD4 (Homo sapiens (Human), UniProt Q9UM07)) of the following molecule: `COc1cc(C(=O)N2C[C@H](N)CCN2C)cc2nc(-c3cc4ccc([C@@H](C)NC(=O)c5cnn(C)c5)nc4n3CC3CC3)n(C)c12`
7.32

Give pIC50 (human PAD4 (Homo sapiens (Human), UniProt Q9UM07)) of the following molecule: `COc1cc(C(=O)N2[C@H]3CC[C@@H]2[C@H](N)C3)cc2nc(-c3cc4ccc(N(C)S(C)(=O)=O)nc4n3CC3CC3)n(C)c12`
7.47

Give pIC50 (human PAD4 (Homo sapiens (Human), UniProt Q9UM07)) of the following molecule: `CN(c1ccc2cc(-c3nc4cc(C(=O)N5CCC[C@@H](N)C5)cc5c4n3CCO5)n(CC3CC3)c2n1)S(C)(=O)=O`
6.09

Give pIC50 (human PAD4 (Homo sapiens (Human), UniProt Q9UM07)) of the following molecule: `COc1cc(C(=O)N2C[C@H](N)CC[C@@H]2C)cc2nc(-c3cc4ccc(N(C(F)F)S(C)(=O)=O)nc4n3CC3CC3)n(C)c12`
7.03

Give pIC50 (human PAD4 (Homo sapiens (Human), UniProt Q9UM07)) of the following molecule: `CN(c1ccc2cc(-c3nc4cc(C(=O)N5[C@H]6CC[C@@H]5[C@H](N)C6)cc5c4n3CCO5)n(CC3CC3)c2n1)S(C)(=O)=O`
6.67

Give pIC50 (human PAD4 (Homo sapiens (Human), UniProt Q9UM07)) of the following molecule: `COc1cc(C(=O)N2C[C@H](N)CC[C@@H]2C)cc2nc(-c3cc4ccc(C(=O)N(C)c5ccccc5)nc4n3CC3CC3)n(C)c12`
5.74

Give pIC50 (human PAD4 (Homo sapiens (Human), UniProt Q9UM07)) of the following molecule: `CS(=O)(=O)N(c1ccc2cc(-c3nc4cc(C(=O)N5CCC[C@@H](N)C5)ccc4n3C3CC3)n(CC3CC3)c2n1)C(F)F`
7.43

Give pIC50 (human PAD4 (Homo sapiens (Human), UniProt Q9UM07)) of the following molecule: `CCN(c1ccc2cc(-c3nc4cc(C(=O)N5CCC[C@@H](N)[C@H]5C)cc(OC)c4n3CC3COC3)n(CC3CC3)c2n1)S(C)(=O)=O`
6.63

Give pIC50 (human PAD4 (Homo sapiens (Human), UniProt Q9UM07)) of the following molecule: `COc1cc(C(=O)N2C[C@H](N)[C@@H]3CC[C@H]2C3)cc2nc(-c3cc4ccc([C@@H](C)NC(=O)c5cnn(C(F)F)c5)nc4n3CC3CC3)n(C)c12`
7.32

Give pIC50 (human PAD4 (Homo sapiens (Human), UniProt Q9UM07)) of the following molecule: `COc1cc(C(=O)N2[C@H]3CC[C@@H]2[C@H](N)C3)cc2nc(-c3cc4ccc([C@@H](C)NC(=O)N5CC[C@@H](F)C5)cc4n3CC3CC3)n(C)c12`
7.73

Give pIC50 (human PAD4 (Homo sapiens (Human), UniProt Q9UM07)) of the following molecule: `COc1cc(C(=O)N2CC[C@@H](C)[C@@H](N)C2)cc2nc(-c3cc4ccc(N(C5CC5)S(C)(=O)=O)nc4n3CC3CC3)n(C)c12`
6.52

Give pIC50 (human PAD4 (Homo sapiens (Human), UniProt Q9UM07)) of the following molecule: COc1cc(C(=O)N2[C@H]3CC[C@@H]2[C@H](N)C3)cc2nc(-c3cc4ccc([C@@H](C)NC(=O)C(C)n5cccn5)nc4n3CC3CC3)n(C)c12 (stereo partly shown)
7.04

Give pIC50 (human PAD4 (Homo sapiens (Human), UniProt Q9UM07)) of the following molecule: `COc1cc(C(=O)N2C[C@H](N)CCN2C)cc2nc(-c3cc4ccc([C@@H](C)NC(=O)c5c(F)cc(F)cc5F)nc4n3CC3CC3)n(C)c12`
7.06

Give pIC50 (human PAD4 (Homo sapiens (Human), UniProt Q9UM07)) of the following molecule: `C[C@@H](NC(=O)[C@@H]1CC1(F)F)c1ccc2cc(-c3nc4cc(C(=O)N5C[C@H](N)[C@@H]6CC[C@H]5C6)cc(F)c4n3C3CC3)n(CC3CC3)c2n1`
7.27

Give pIC50 (human PAD4 (Homo sapiens (Human), UniProt Q9UM07)) of the following molecule: `CCc1nc(C)c(-c2ncccc2-c2ccc3cc(-c4nc5cc(C(=O)N6CCC[C@@H](N)C6)cc(OC)c5n4C)n(CC4CC4)c3n2)s1`
6.87
